molecular target: Cannabinoid receptor 2 (Homo sapiens); assay: Agonist activity at CB2 receptor (unknown origin) expressed in CHO cells assessed as induction of calcium mobilization at 10 uM by fluo-4 AM dye-based fluorescence assay relative to CP55940; type: functional, cell-based
Sequence (P34972 whole entry): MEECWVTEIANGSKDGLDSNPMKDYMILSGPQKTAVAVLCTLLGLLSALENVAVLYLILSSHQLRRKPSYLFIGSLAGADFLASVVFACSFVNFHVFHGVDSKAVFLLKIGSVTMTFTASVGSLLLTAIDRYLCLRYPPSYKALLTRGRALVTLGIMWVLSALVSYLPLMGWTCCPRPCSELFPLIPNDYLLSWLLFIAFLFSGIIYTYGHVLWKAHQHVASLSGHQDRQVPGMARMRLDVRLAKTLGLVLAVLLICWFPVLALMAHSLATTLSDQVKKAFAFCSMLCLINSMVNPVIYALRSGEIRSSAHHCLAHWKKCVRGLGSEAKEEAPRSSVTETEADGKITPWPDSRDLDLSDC
The entries below come with measured Activity values attached.

compound	Activity
O=C(NCC1CCOCC1)c1cnc(Nc2ccc(Cl)cc2Cl)nc1C(F)(F)F [GW842166X]	129%

Query: Activity; subject: CC(C)c1cc(NC2CC2)nnc1C(=O)NC1C2CC3CC(C2)CC1C3 (configuration not stated)
119%

Quick one: Activity for CC(C)c1cc(C(=O)NC2C3CC4CC(C3)CC2C4)nnc1NCC1CC1 (configuration not stated) ?
113%
